system: Enterococcus faecalis; test: Antibacterial activity against Enterococcus faecalis ATCC 29212 by CLSI M07-A8 method; format: functional
Field 'label' (enum: YES / NO). Set to YES when MIC is strictly under 0.5 µg/mL; else NO.

structure.smiles.string | class.name
CNC(=O)C[C@@H]1NC(=O)c2csc(n2)-c2ccc(-c3nc(NC(=O)CCC(=O)O)cs3)nc2-c2csc(n2)-c2csc(n2)[C@H]([C@@H](O)c2ccccc2)NC(=O)CNC(=O)c2nc(sc2COC)[C@H](C(C)C)NC(=O)c2nc1sc2C | YES
CNC(=O)C[C@@H]1NC(=O)c2csc(n2)-c2ccc(-c3nc(NC(=O)OCCCC(=O)O)cs3)nc2-c2csc(n2)-c2csc(n2)[C@H]([C@@H](O)c2ccccc2)NC(=O)CNC(=O)c2nc(sc2COC)[C@H](C(C)C)NC(=O)c2nc1sc2C | YES
CNC(=O)C[C@@H]1NC(=O)c2csc(n2)-c2ccc(-c3nc(NC(=O)O[C@H]4C[C@@H](C(=O)O)C[C@@H]4N)cs3)nc2-c2csc(n2)-c2csc(n2)[C@H]([C@@H](O)c2ccccc2)NC(=O)CNC(=O)c2nc(sc2COC)[C@H](C(C)C)NC(=O)c2nc1sc2C | NO
CNC(=O)C[C@@H]1NC(=O)c2csc(n2)-c2ccc(-c3nc(NC(=O)OCCCC(N)=O)cs3)nc2-c2csc(n2)-c2csc(n2)[C@H]([C@@H](O)c2ccccc2)NC(=O)CNC(=O)c2nc(sc2COC)[C@H](C(C)C)NC(=O)c2nc1sc2C | YES
CNC(=O)C[C@@H]1NC(=O)c2csc(n2)-c2ccc(-c3nc(NC(=O)O[C@H]4C[C@@H](C(=O)O)C4)cs3)nc2-c2csc(n2)-c2csc(n2)[C@H]([C@@H](O)c2ccccc2)NC(=O)CNC(=O)c2nc(sc2COC)[C@H](C(C)C)NC(=O)c2nc1sc2C | YES
CNC(=O)C[C@@H]1NC(=O)c2csc(n2)-c2ccc(-c3nc(NC(=O)c4ccc(C(=O)O)cc4)cs3)nc2-c2csc(n2)-c2csc(n2)[C@H]([C@@H](O)c2ccccc2)NC(=O)CNC(=O)c2nc(sc2COC)[C@H](C(C)C)NC(=O)c2nc1sc2C | YES

---

assay: Clearance in Sprague-Dawley rat at 25 mg/kg, iv bolus; assay type: ADME, organism-based; set-up: dose 25 mg/kg, route intravenous; conditions: in vivo
quantity.measured: clearance

structure.smiles.string | quantity.measured | result
CNC(=O)C[C@@H]1NC(=O)c2csc(n2)-c2ccc(-c3nc(NC(=O)[C@H]4CC[C@H](C(=O)O)CC4)cs3)nc2-c2csc(n2)-c2csc(n2)[C@H]([C@@H](O)c2ccccc2)NC(=O)CNC(=O)c2nc(sc2COC)[C@H](C(C)C)NC(=O)c2nc1sc2C | clearance | 1 mL/min/kg

---

Measured MIC, listed per entry for reference.
test system: Enterococcus faecalis; test: Antibacterial activity against Enterococcus faecalis ATCC 29212 by CLSI M07-A8 method; type: functional

structure.smiles.string | experimental.system | MIC [µg/mL]
CNC(=O)C[C@@H]1NC(=O)c2csc(n2)-c2ccc(-c3nc(NC(=O)[C@H](C)CCC(=O)O)cs3)nc2-c2csc(n2)-c2csc(n2)[C@H]([C@@H](O)c2ccccc2)NC(=O)CNC(=O)c2nc(sc2COC)[C@H](C(C)C)NC(=O)c2nc1sc2C | Enterococcus faecalis | 0.25
CNC(=O)C[C@@H]1NC(=O)c2csc(n2)-c2ccc(-c3nc(NC(=O)C(F)(F)F)cs3)nc2-c2csc(n2)-c2csc(n2)[C@H]([C@@H](O)c2ccccc2)NC(=O)CNC(=O)c2nc(sc2COC)[C@H](C(C)C)NC(=O)c2nc1sc2C | Enterococcus faecalis | 1

---

Measured MIC, listed per entry for reference.
tested on: Enterococcus faecalis; assay: Antibacterial activity against Enterococcus faecalis ATCC 29212 by CLSI M07-A8 method; format: functional
quantity.measured: MIC (µg/mL)

structure.smiles.string | quantity.measured | op | measured.number
CNC(=O)C[C@@H]1NC(=O)c2csc(n2)-c2ccc(-c3nc(NC(=O)C45CCC(C(=O)O)(CC4)CC5)cs3)nc2-c2csc(n2)-c2csc(n2)[C@H]([C@@H](O)c2ccccc2)NC(=O)CNC(=O)c2nc(sc2COC)[C@H](C(C)C)NC(=O)c2nc1sc2C | MIC | = | 0.125
CNC(=O)C[C@@H]1NC(=O)c2csc(n2)-c2ccc(-c3nc(NC(=O)O[C@H]4C[C@H](C(=O)O)C4)cs3)nc2-c2csc(n2)-c2csc(n2)[C@H]([C@@H](O)c2ccccc2)NC(=O)CNC(=O)c2nc(sc2COC)[C@H](C(C)C)NC(=O)c2nc1sc2C | MIC | = | 0.06
CNC(=O)C[C@@H]1NC(=O)c2csc(n2)-c2ccc(-c3nc(NC(=O)CCCCP(=O)(O)O)cs3)nc2-c2csc(n2)-c2csc(n2)[C@H]([C@@H](O)c2ccccc2)NC(=O)CNC(=O)c2nc(sc2COC)[C@H](C(C)C)NC(=O)c2nc1sc2C | MIC | > | 32
CNC(=O)C[C@@H]1NC(=O)c2csc(n2)-c2ccc(-c3nc(NC(=O)OC4CC(C)(C)NC(C)(C)C4)cs3)nc2-c2csc(n2)-c2csc(n2)[C@H]([C@@H](O)c2ccccc2)NC(=O)CNC(=O)c2nc(sc2COC)[C@H](C(C)C)NC(=O)c2nc1sc2C | MIC | = | 1

---

Measured MIC, listed per entry for reference.
system: Enterococcus faecium; test: Antibacterial activity against Enterococcus faecium 7130724 by CLSI M07-A8 method; type: functional

structure.smiles.string | MIC / µg/mL
CNC(=O)C[C@@H]1NC(=O)c2csc(n2)-c2ccc(-c3nc(NC(=O)c4ccc(C(=O)O)nc4)cs3)nc2-c2csc(n2)-c2csc(n2)[C@H]([C@@H](O)c2ccccc2)NC(=O)CNC(=O)c2nc(sc2COC)[C@H](C(C)C)NC(=O)c2nc1sc2C | 8
CNC(=O)C[C@@H]1NC(=O)c2csc(n2)-c2ccc(-c3nc(NC(=O)OCCCCCN)cs3)nc2-c2csc(n2)-c2csc(n2)[C@H]([C@@H](O)c2ccccc2)NC(=O)CNC(=O)c2nc(sc2COC)[C@H](C(C)C)NC(=O)c2nc1sc2C | 0.5
CNC(=O)C[C@@H]1NC(=O)c2csc(n2)-c2ccc(-c3nc(NC(=O)O[C@H]4C[C@@H](C(=O)O)C4)cs3)nc2-c2csc(n2)-c2csc(n2)[C@H]([C@@H](O)c2ccccc2)NC(=O)CNC(=O)c2nc(sc2COC)[C@H](C(C)C)NC(=O)c2nc1sc2C | 0.03
CNC(=O)C[C@@H]1NC(=O)c2csc(n2)-c2ccc(-c3nc(NC(=O)OCCN)cs3)nc2-c2csc(n2)-c2csc(n2)[C@H]([C@@H](O)c2ccccc2)NC(=O)CNC(=O)c2nc(sc2COC)[C@H](C(C)C)NC(=O)c2nc1sc2C | 1
CNC(=O)C[C@@H]1NC(=O)c2csc(n2)-c2ccc(-c3nc(NC(=O)CCCCN)cs3)nc2-c2csc(n2)-c2csc(n2)[C@H]([C@@H](O)c2ccccc2)NC(=O)CNC(=O)c2nc(sc2COC)[C@H](C(C)C)NC(=O)c2nc1sc2C | 1
CNC(=O)C[C@@H]1NC(=O)c2csc(n2)-c2ccc(-c3nc(NC(=O)OC4CC(C)(C)NC(C)(C)C4)cs3)nc2-c2csc(n2)-c2csc(n2)[C@H]([C@@H](O)c2ccccc2)NC(=O)CNC(=O)c2nc(sc2COC)[C@H](C(C)C)NC(=O)c2nc1sc2C | 0.5
CNC(=O)C[C@@H]1NC(=O)c2csc(n2)-c2ccc(-c3nc(NC(=O)CC[C@@H](C)C(=O)O)cs3)nc2-c2csc(n2)-c2csc(n2)[C@H]([C@@H](O)c2ccccc2)NC(=O)CNC(=O)c2nc(sc2COC)[C@H](C(C)C)NC(=O)c2nc1sc2C | 0.25
CNC(=O)C[C@@H]1NC(=O)c2csc(n2)-c2ccc(-c3nc(NS(C)(=O)=O)cs3)nc2-c2csc(n2)-c2csc(n2)[C@H]([C@@H](O)c2ccccc2)NC(=O)CNC(=O)c2nc(sc2COC)[C@H](C(C)C)NC(=O)c2nc1sc2C | 4
CNC(=O)C[C@@H]1NC(=O)c2csc(n2)-c2ccc(-c3nc(NC(=O)OCCCCN)cs3)nc2-c2csc(n2)-c2csc(n2)[C@H]([C@@H](O)c2ccccc2)NC(=O)CNC(=O)c2nc(sc2COC)[C@H](C(C)C)NC(=O)c2nc1sc2C | 1
CNC(=O)C[C@@H]1NC(=O)c2csc(n2)-c2ccc(-c3nc(NC(=O)O[C@H]4CC[C@H](N)CC4)cs3)nc2-c2csc(n2)-c2csc(n2)[C@H]([C@@H](O)c2ccccc2)NC(=O)CNC(=O)c2nc(sc2COC)[C@H](C(C)C)NC(=O)c2nc1sc2C | 0.5
CNC(=O)C[C@@H]1NC(=O)c2csc(n2)-c2ccc(-c3nc(NC(=O)CC(=O)O)cs3)nc2-c2csc(n2)-c2csc(n2)[C@H]([C@@H](O)c2ccccc2)NC(=O)CNC(=O)c2nc(sc2COC)[C@H](C(C)C)NC(=O)c2nc1sc2C | 2
CNC(=O)C[C@@H]1NC(=O)c2csc(n2)-c2ccc(-c3nc(NC(=O)CCCN(C)C)cs3)nc2-c2csc(n2)-c2csc(n2)[C@H]([C@@H](O)c2ccccc2)NC(=O)CNC(=O)c2nc(sc2COC)[C@H](C(C)C)NC(=O)c2nc1sc2C | 1
CNC(=O)C[C@@H]1NC(=O)c2csc(n2)-c2ccc(-c3nc(NC(=O)NCCC(=O)O)cs3)nc2-c2csc(n2)-c2csc(n2)[C@H]([C@@H](O)c2ccccc2)NC(=O)CNC(=O)c2nc(sc2COC)[C@H](C(C)C)NC(=O)c2nc1sc2C | 2
CNC(=O)C[C@@H]1NC(=O)c2csc(n2)-c2ccc(-c3nc(NC(=O)CCCO)cs3)nc2-c2csc(n2)-c2csc(n2)[C@H]([C@@H](O)c2ccccc2)NC(=O)CNC(=O)c2nc(sc2COC)[C@H](C(C)C)NC(=O)c2nc1sc2C | 0.5
CNC(=O)C[C@@H]1NC(=O)c2csc(n2)-c2ccc(-c3nc(NC(=O)/C=C\C(=O)O)cs3)nc2-c2csc(n2)-c2csc(n2)[C@H]([C@@H](O)c2ccccc2)NC(=O)CNC(=O)c2nc(sc2COC)[C@H](C(C)C)NC(=O)c2nc1sc2C | 2
CNC(=O)C[C@@H]1NC(=O)c2csc(n2)-c2ccc(-c3nc(NC(=O)c4ccc(C(=O)O)cc4)cs3)nc2-c2csc(n2)-c2csc(n2)[C@H]([C@@H](O)c2ccccc2)NC(=O)CNC(=O)c2nc(sc2COC)[C@H](C(C)C)NC(=O)c2nc1sc2C | 0.125
